measured_metric: melting point

As a guide, the following entries are already answered.
COc1ccc(-c2cc(=O)n3cc(N4C[C@@H]5CN(C(C)C)C[C@@H]5C4)ccc3n2)cc1F    189 to 192 °C
Cc1cn2nc(-c3cc(=O)n4cc(N5CCCN(C)CC5)ccc4n3)cc2c(C)n1    169 to 171 °C
Cc1cn2nc(-c3cc(=O)n4cc(N5CC[C@H](CN)C5)ccc4n3)cc2c(C)n1    214 to 217 °C
CCN1CCC(c2cn3c(=O)cc(-c4ccc5nn(C)cc5c4)nc3cn2)CC1    198 to 200 °C
Cc1cn2nc(-c3cc(=O)n4cc(N5CCC(CN6CCCC6)CC5)ccc4n3)cc2c(C)n1    177 to 180 °C
Cc1cc(C2CCN(CCO)CC2)cn2c(=O)cc(-c3ccc4nn(C)cc4c3)nc12    216 to 222 °C
Cn1cc2cc(-c3cc(=O)n4cc(N5CCNCC5)ccc4n3)ccc2n1    175 to 180 °C
Cc1cn2cc(-c3ccc4nc(C5CCN(C)CC5)cc(=O)n4c3)cc(F)c2n1    235 to 238 °C

# ---- query compound ----
What the record says about O=c1cc(-c2cccc(C(F)(F)F)c2)nc2ccc(N3CCNCC3)cn12 : melting point is 199 to 207 °C
